Settings: in water, 313.15 K
REPORTED_ENDPOINT: solubility (mole fraction)
Simply state the number, no unit and no words.

Value lookup for solubility (mole fraction); key = `N[C@@H](Cc1c[nH]c2ccccc12)C(=O)O`
0.00199

====

Settings: in water, 293.15 K
REPORTED_ENDPOINT: solubility (mole fraction)
Simply state the number, no unit and no words.

Value lookup for solubility (mole fraction); key = `N[C@@H](Cc1c[nH]c2ccccc12)C(=O)O`
0.00124

====

Conditions: in acetonitrile, 288.15 K
REPORTED_ENDPOINT: solubility (mole fraction)
Simply state the number, no unit and no words.

Value lookup for solubility (mole fraction); key = `N[C@@H](Cc1c[nH]c2ccccc12)C(=O)O`
2e-05

====

Conditions: in ethyl acetate, 278.15 K
REPORTED_ENDPOINT: solubility (mole fraction)
Simply state the number, no unit and no words.

Value lookup for solubility (mole fraction); key = `N[C@@H](Cc1c[nH]c2ccccc12)C(=O)O`
4e-05

====

Details: in isopropanol, 323.15 K
REPORTED_ENDPOINT: solubility (mole fraction)
Simply state the number, no unit and no words.

Value lookup for solubility (mole fraction); key = `N[C@@H](Cc1c[nH]c2ccccc12)C(=O)O`
0.00037

====

Conditions: in acetone, 278.15 K
REPORTED_ENDPOINT: solubility (mole fraction)
Simply state the number, no unit and no words.

Value lookup for solubility (mole fraction); key = `N[C@@H](Cc1c[nH]c2ccccc12)C(=O)O`
0.0001

====

Details: in ethanol, 308.15 K
REPORTED_ENDPOINT: solubility (mole fraction)
Simply state the number, no unit and no words.

Value lookup for solubility (mole fraction); key = `N[C@@H](Cc1c[nH]c2ccccc12)C(=O)O`
0.00028

====

Conditions: in acetonitrile, 308.15 K
REPORTED_ENDPOINT: solubility (mole fraction)
Simply state the number, no unit and no words.

Value lookup for solubility (mole fraction); key = `N[C@@H](Cc1c[nH]c2ccccc12)C(=O)O`
7e-05

====

Conditions: in ethyl acetate, 313.15 K
REPORTED_ENDPOINT: solubility (mole fraction)
Simply state the number, no unit and no words.

Value lookup for solubility (mole fraction); key = `N[C@@H](Cc1c[nH]c2ccccc12)C(=O)O`
0.00023

====

Settings: in ethyl acetate, 323.15 K
REPORTED_ENDPOINT: solubility (mole fraction)
Simply state the number, no unit and no words.

Value lookup for solubility (mole fraction); key = `N[C@@H](Cc1c[nH]c2ccccc12)C(=O)O`
0.00034

====

Conditions: in n-butanol, 328.15 K
REPORTED_ENDPOINT: solubility (mole fraction)

Value lookup for solubility (mole fraction); key = `N[C@@H](Cc1c[nH]c2ccccc12)C(=O)O`
0.00049

====

Conditions: in methanol, 328.15 K
REPORTED_ENDPOINT: solubility (mole fraction)
Simply state the number, no unit and no words.

Value lookup for solubility (mole fraction); key = `N[C@@H](Cc1c[nH]c2ccccc12)C(=O)O`
0.00189

====

Settings: in acetonitrile, 293.15 K
REPORTED_ENDPOINT: solubility (mole fraction)
Simply state the number, no unit and no words.

Value lookup for solubility (mole fraction); key = `N[C@@H](Cc1c[nH]c2ccccc12)C(=O)O`
3e-05

====

Details: in isopropanol, 278.15 K
REPORTED_ENDPOINT: solubility (mole fraction)
Simply state the number, no unit and no words.

Value lookup for solubility (mole fraction); key = `N[C@@H](Cc1c[nH]c2ccccc12)C(=O)O`
0.00011

====

Settings: in methanol, 323.15 K
REPORTED_ENDPOINT: solubility (mole fraction)
Simply state the number, no unit and no words.

Value lookup for solubility (mole fraction); key = `N[C@@H](Cc1c[nH]c2ccccc12)C(=O)O`
0.00166

====

Settings: in methanol, 288.15 K
REPORTED_ENDPOINT: solubility (mole fraction)

Value lookup for solubility (mole fraction); key = `N[C@@H](Cc1c[nH]c2ccccc12)C(=O)O`
0.00072

====

Details: in ethyl acetate, 288.15 K
REPORTED_ENDPOINT: solubility (mole fraction)

Value lookup for solubility (mole fraction); key = `N[C@@H](Cc1c[nH]c2ccccc12)C(=O)O`
7e-05

====

Settings: in n-butanol, 298.15 K
REPORTED_ENDPOINT: solubility (mole fraction)
Simply state the number, no unit and no words.

Value lookup for solubility (mole fraction); key = `N[C@@H](Cc1c[nH]c2ccccc12)C(=O)O`
0.00017

====

Conditions: in ethanol, 328.15 K
REPORTED_ENDPOINT: solubility (mole fraction)
Simply state the number, no unit and no words.

Value lookup for solubility (mole fraction); key = `N[C@@H](Cc1c[nH]c2ccccc12)C(=O)O`
0.0005

====

Conditions: in n-butanol, 283.15 K
REPORTED_ENDPOINT: solubility (mole fraction)
Simply state the number, no unit and no words.

Value lookup for solubility (mole fraction); key = `N[C@@H](Cc1c[nH]c2ccccc12)C(=O)O`
0.00011

====

Conditions: in methanol, 308.15 K
REPORTED_ENDPOINT: solubility (mole fraction)
Simply state the number, no unit and no words.

Value lookup for solubility (mole fraction); key = `N[C@@H](Cc1c[nH]c2ccccc12)C(=O)O`
0.00115

====

Settings: in acetone, 303.15 K
REPORTED_ENDPOINT: solubility (mole fraction)
Simply state the number, no unit and no words.

Value lookup for solubility (mole fraction); key = `N[C@@H](Cc1c[nH]c2ccccc12)C(=O)O`
0.00022

====

Conditions: in acetone, 323.15 K
REPORTED_ENDPOINT: solubility (mole fraction)
Simply state the number, no unit and no words.

Value lookup for solubility (mole fraction); key = `N[C@@H](Cc1c[nH]c2ccccc12)C(=O)O`
0.00045

====

Details: in ethyl acetate, 293.15 K
REPORTED_ENDPOINT: solubility (mole fraction)

Value lookup for solubility (mole fraction); key = `N[C@@H](Cc1c[nH]c2ccccc12)C(=O)O`
9e-05

====

Conditions: in methanol, 298.15 K
REPORTED_ENDPOINT: solubility (mole fraction)

Value lookup for solubility (mole fraction); key = `N[C@@H](Cc1c[nH]c2ccccc12)C(=O)O`
0.0009

====

Conditions: in acetone, 308.15 K
REPORTED_ENDPOINT: solubility (mole fraction)
Simply state the number, no unit and no words.

Value lookup for solubility (mole fraction); key = `N[C@@H](Cc1c[nH]c2ccccc12)C(=O)O`
0.00026

====

Details: in acetonitrile, 333.15 K
REPORTED_ENDPOINT: solubility (mole fraction)
Simply state the number, no unit and no words.

Value lookup for solubility (mole fraction); key = `N[C@@H](Cc1c[nH]c2ccccc12)C(=O)O`
0.00017

====

Conditions: in isopropanol, 308.15 K
REPORTED_ENDPOINT: solubility (mole fraction)
Simply state the number, no unit and no words.

Value lookup for solubility (mole fraction); key = `N[C@@H](Cc1c[nH]c2ccccc12)C(=O)O`
0.00024

====

Details: in ethanol, 318.15 K
REPORTED_ENDPOINT: solubility (mole fraction)
Simply state the number, no unit and no words.

Value lookup for solubility (mole fraction); key = `N[C@@H](Cc1c[nH]c2ccccc12)C(=O)O`
0.00038

====

Details: in acetone, 283.15 K
REPORTED_ENDPOINT: solubility (mole fraction)
Simply state the number, no unit and no words.

Value lookup for solubility (mole fraction); key = `N[C@@H](Cc1c[nH]c2ccccc12)C(=O)O`
0.00011

====

Details: in ethanol, 298.15 K
REPORTED_ENDPOINT: solubility (mole fraction)

Value lookup for solubility (mole fraction); key = `N[C@@H](Cc1c[nH]c2ccccc12)C(=O)O`
0.0002

====

Conditions: in water, 283.15 K
REPORTED_ENDPOINT: solubility (mole fraction)
Simply state the number, no unit and no words.

Value lookup for solubility (mole fraction); key = `N[C@@H](Cc1c[nH]c2ccccc12)C(=O)O`
0.00105

====

Conditions: in ethanol, 288.15 K
REPORTED_ENDPOINT: solubility (mole fraction)
Simply state the number, no unit and no words.

Value lookup for solubility (mole fraction); key = `N[C@@H](Cc1c[nH]c2ccccc12)C(=O)O`
0.00014

====

Conditions: in n-butanol, 318.15 K
REPORTED_ENDPOINT: solubility (mole fraction)

Value lookup for solubility (mole fraction); key = `N[C@@H](Cc1c[nH]c2ccccc12)C(=O)O`
0.00034

====

Conditions: in water, 333.15 K
REPORTED_ENDPOINT: solubility (mole fraction)
Simply state the number, no unit and no words.

Value lookup for solubility (mole fraction); key = `N[C@@H](Cc1c[nH]c2ccccc12)C(=O)O`
0.00328

====

Settings: in isopropanol, 293.15 K
REPORTED_ENDPOINT: solubility (mole fraction)
Simply state the number, no unit and no words.

Value lookup for solubility (mole fraction); key = `N[C@@H](Cc1c[nH]c2ccccc12)C(=O)O`
0.00015
